test system: MDA-MB-435 melanoma; test: NCI-60 one-dose screen, 48 h; conditions: 10 µM unless noted
This is part of a sample that, as a whole, favours compounds with a hit. Of some 83,000 tested, about 20% had one in any assay. Activity calls are given as the source filed them. Rule for the calls: active = growth percent below 10; inactive = the rest.
Would you mind answering with one of these outcomes? T for active, F for inactive

Some entries whose results are on file:
# compound, classification
data = [
    ("O=C1/C(=C\\c2cn(-c3ccccc3)nc2-c2ccc(-c3cccs3)cc2)CCc2ccccc21", "T"),
    ("CN(C)CCNC(=O)c1cccc(-c2cnc3ccc(-c4ccc5c(c4)OCO5)nn23)c1", "F"),
]

Which outcome was assigned to CN(C)CCCn1c2c(c3ncccc3c1=O)C(=O)c1ccccc1-2 in this test?
F

Which outcome was assigned to CCOC(=O)C1=NN(c2ccccc2)C(=O)/C1=C\N1C(=O)CC(=O)NC1=S in this test?
T

---

test system: OVCAR-3 ovarian; assay: NCI-60 one-dose screen, 48 h (100 = growth as untreated, 0 = no growth, -100 = all killed); details: 10 µM unless noted
Compounds without any hit were thinned out: in the full panel of roughly 83,000, 20% have a hit.
measurement.name: growth (%)
Numbers only, in %.

Example entries begin here.
# compound, value.units, growth
data = [
    ("COc1cc(-n2cc(-c3cc(O)c(C/C=C(\\C)CCC=C(C)C)c(O)c3)nn2)cc2c1O[C@]1(C)CC[C@@H](O)C(C)(C)[C@H]1C2", "%", -19.6),
    ("COc1ccc(/C=C2\\C(=O)N=C3N2NC(c2cc(Br)ccc2O)C=C(C)N3c2ccccc2)cc1 (stereo unspecified)", "%", 103),
    ("N#CC1=C(N)Oc2c(sc3c(F)cccc23)C1c1ccc(F)cc1 (stereo unspecified)", "%", 10.9),
]

Give measured growth for every item shown.
1. O=C(Cn1c(=O)sc2nc3ccccc3nc21)Nc1ncc(Cc2cccc(Cl)c2Cl)s1
2. COC(=O)/C=C1/SC(=Nc2ccc(C)cc2)N(CCc2c[nH]c3ccc(O)cc23)C1=O
3. CCCc1cc(NC)nc(S(=O)(=O)CC)n1

111
32.7
119

Give measured growth for every item shown.
1. CCOC(=O)c1c2c(n3ccc(C)cc13)C(=O)c1ccccc1C2=O
2. COc1ccc2cc(-c3ccc(NC(C)=O)c(=O)o3)ccc2c1
3. O=C(NNc1nccc(Nc2ccc(S(=O)(=O)Nc3ccncc3)cc2)n1)c1ccccc1
4. CC(=O)n1nc(C(=O)OC(C)C)c2cc(C)c(C)cc21
5. CN1CCN(Cc2ccc(NC(=O)c3cncc(C#Cc4cnc(N)c5ccccc45)c3)cc2C(F)(F)F)CC1

88.2
101
100
108
-87.6

---

test system: SK-MEL-28 melanoma; assay: NCI-60 one-dose screen, 48 h (100 = growth as untreated, 0 = no growth, -100 = all killed); conditions: 10 µM unless noted
Compounds without any hit were thinned out: in the full panel of roughly 83,000, 20% have a hit.
For each of the compounds below, state its growth.
Answers are plain numbers, in %.

Example entries begin here.
# compound, system.tested, value.units, data.value
measured = [
    ("O=C1CC(N2C(=O)/C(=C/C(Cl)=C\\c3ccc([N+](=O)[O-])cc3)SC2=S)C(=O)N1c1ccc(Cl)cc1 (stereo not drawn)", "SK-MEL-28 melanoma", "%", 18.2),
    ("COc1ccc2c(O)c(/C=C3\\N=Nc4ncccc43)oc2c1C[C@H]1CCNC[C@H]1F", "SK-MEL-28 melanoma", "%", 8.22),
    ("O=C(N/N=C/c1ccc(F)cc1)c1ccc(C(F)(F)F)nc1Nc1cccc(C(F)(F)F)c1", "SK-MEL-28 melanoma", "%", 12.7),
    ("O=[N+]([O-])/C(=C/C=C/c1ccccc1)c1ccccc1", "SK-MEL-28 melanoma", "%", 12.6),
    ("O=C1NC(=O)c2c1c1c3ccccc3ccc1c1[nH]c3ccc(Br)cc3c21", "SK-MEL-28 melanoma", "%", 44.4),
]

Give measured growth for every item shown.
1. COc1ccc(-c2ccc3cnc4sc(-c5ccc(OC)cc5)nc4c3n2)cc1
2. COC(=O)c1c2c(c(C)[n+]([O-])c1C)C(=O)C(NCc1ccc(Cl)cc1)=CC2=O
3. Cn1cc(-c2nc(-c3c[nH]c4ccncc34)cs2)c2ccccc21

[107, 95.7, -79.8]

---

Tested on: DU-145 prostate
Test: NCI-60 one-dose screen, 48 h
Conditions: 10 µM unless noted
Experimental: Cells are grown in 96 well plates and exposed to the test compound for 48 hours. Compounds are tested at a single concentration, which is 10^-5 M for most compounds. The reported endpoint is percent growth (GI% or GIPRCNT), where numbers from 0 - 100% represent growth inhibition, and numbers from -100% - 0 represent cell death. For example, a value of 40 represents 60% growth inhibition. A value of 0 means no net growth occurred over the course of the experiment. […]
About 83,000 compounds went through this panel and 20% of them were active in at least one assay; those are over-represented in the sample as a whole. The source made the active and inactive calls. The calls were made as follows: active = growth percent below 10; inactive = the rest.
Would you mind answering with one of these outcomes? active, inactive

Which outcome was assigned to CC(C)(C)n1cc(-c2ccnc(NCCNS(=O)(=O)c3cccc4ccccc34)c2)c(-c2cccc(F)c2)n1 in this test?
active

Which outcome was assigned to Cc1ccc(-c2nc3nc(-c4ccc(F)cc4)nc(N4CCNCC4)c3o2)cc1 in this test?
inactive

---

test system: MALME-3M melanoma; assay: NCI-60 one-dose screen, 48 h (100 = growth as untreated, 0 = no growth, -100 = all killed); details: 10 µM unless noted
This is part of a sample that, as a whole, favours compounds with a hit. Of some 83,000 tested, about 20% had one in any assay. The source made the active and inactive calls. How the source made its calls: active means growth percent below 10; inactive means the rest.
measurement.name: growth

Example entries begin here.
# compound, growth
measured = [
    ("O=[N+]([O-])C1C(c2ccccc2)C12c1ccccc1-c1ccccc12 (stereo not given)", "59.4% (inactive)"),
    ("CCN(CC)CCNC(=O)c1cn2ncnc(Oc3ccc(NC(=O)Nc4ccc(Cl)c(C(F)(F)F)c4)c(F)c3)c2c1C", "-89.7% (active)"),
    ("COC(=O)c1c2c(c(C)[n+]([O-])c1C)C(=O)C=C(NCc1ccc(Br)cc1)C2=O", "-97.9% (active)"),
    ("CNC(=O)c1c(NC(=O)c2ccc(C(F)(F)F)cc2)sc2c1CCC(=O)C2", "-9.54% (active)"),
]

Give measured growth for every item shown.
1. CN([O-])c1nc(N(C)[O-])nc(N2CCOCC2)n1.CN([O-])c1nc(N(C)[OH2+])nc(N2CCOCC2)n1.[Fe+3]
2. CCN(CC)CCOc1ccc(C(=C(C)c2ccc(Cl)cc2)c2ccc(OCCN(CC)CC)cc2)cc1
3. COc1ccc(/C=N/NC(=O)CCN2c3ccccc3Sc3ccccc32)cc1
4. Oc1ccc(CCn2c(O)c(/C=C3\CN=c4ccccc4=N3)sc2=S)cc1
5. CCNc1cc(-c2cccc(OC(F)(F)F)c2)nc2ccc(N3CCCC3)cc12
6. N#Cc1c(-c2cccs2)cc(-c2cccnc2)[nH]c1=O
7. Cc1noc(C)c1C(=O)OCc1coc2ccccc2c1=O
8. CC[C@@H](C(=O)[C@@H](C)[C@@H](O)[C@H](C)[C@@H]1O[C@@H]([C@@H](CC)C(=O)NCCc2ccc(F)cc2)CC[C@@H]1C)C1O[C@]2(C=CC(=O)[C@]3(CC[C@@](C)([C@H]4CC[C@](O)(CC)[C@H](C)O4)O3)O2)[C@H](C)C[C@@H]1C (stereo not given in full)

118% [100 µM] (inactive)
-84.1% (active)
71.7% (inactive)
62.3% (inactive)
-32.2% (active)
104% (inactive)
51.4% (inactive)
36% (inactive)

Give measured growth for every item shown.
1. CCOC(=O)c1cc2c(=O)oc3ccccc3c2oc1=O
2. COC(=O)c1c2c(c(C)[n+]([O-])c1C)C(=O)C=C(NCc1ccc(OC)cc1)C2=O
3. CN1CCN(Cc2ccc3c(NNC(=O)c4ccccc4)nc4cc(F)ccc4n23)CC1
4. CN(C)Cc1ccc(NC(=O)c2cncc(C#Cc3cnc(N)c4ncccc34)c2)cc1F
5. C#Cc1cccc(Nc2ncnc3ccc(-c4cnc(N)nc4)cc23)c1

["105% (inactive)", "-97.4% (active)", "23.5% (inactive)", "65.6% (inactive)", "9.03% (active)"]

---

tested on: NCI-H460 lung; test: NCI-60 one-dose screen, 48 h; conditions: 10 µM unless noted
Compounds without any hit were thinned out: in the full panel of roughly 83,000, 20% have a hit. Calls of active or inactive are those of the source. Rule for the calls: active = growth percent below 10; inactive = the rest.
Would you mind answering with one of these outcomes? t (active), f (inactive)

Some entries whose results are on file:
# compound, system.tested, classification
rows = [
    ("COc1ccc2c(O)c(/C=C3\\N=Nc4ccccc43)oc2c1C[C@@H]1CCNC[C@H]1F", "NCI-H460 lung", "f"),
    ("Cc1nc2ncnc(Cl)c2[nH]1", "NCI-H460 lung", "f"),
]

Which outcome was assigned to CCOC(=O)c1cn2ncnc(Oc3ccc(NC(=O)NC4CCCCC4)c(Cl)c3)c2c1C in this test?
f

Which outcome was assigned to O=C(Cn1cc(CN2C(=O)c3ccccc3S2(=O)=O)nn1)Nc1nc2ccccc2s1 in this test?
f

Which outcome was assigned to Clc1ccc2c(c1)N(c1ncnc3ccc(-c4cnc5[nH]ncc5c4)cc13)CC2 in this test?
f

Which outcome was assigned to C=C1C(=O)O[C@H]2[C@H]1CC/C(COC(=O)CSCCSCC(=O)OC/C1=C/CC[C@@]3(C)O[C@H]3[C@H]3OC(=O)C(=C)[C@@H]3CC1)=C\CC[C@@]1(C)O[C@@H]21 in this test?
f

Which outcome was assigned to CCn1cc(C(=O)N/N=C/c2cccs2)c(=O)c2cc(F)c(N3CCNC(C)C3)c(F)c21 (stereo not drawn) in this test?
f

Which outcome was assigned to Cn1cc(-c2nc(-c3c[nH]c4ccncc34)cs2)c2ccccc21 in this test?
t

Which outcome was assigned to O=C1/C(=C/c2ccc(F)cc2)COc2ccc(O)cc21 in this test?
f

Which outcome was assigned to CN1C(=O)/C(=C/c2cn(-c3ccccc3)nc2-c2ccccc2)SC1=S in this test?
f

Which outcome was assigned to CC(C)CCC[C@@H](C)[C@H]1CC[C@H]2[C@@H]3CC=C4C[C@@H](C(C(=O)O)C(=O)O)CC[C@]4(C)[C@H]3CC[C@]12C in this test?
t

Which outcome was assigned to Cc1cccc(Cl)c1NC(=O)c1ccc2nc(NC(=O)NCCN(C)C)sc2c1 in this test?
f

Which outcome was assigned to Nc1ncnc2c1N=C(c1ccc3c(c1)OCO3)CC(c1cccc(Nc3ccnc4cc(Cl)ccc34)c1)N2 (stereo not drawn) in this test?
f

This collection of values is drawn from PubChem BioAssay (NCI).
